- Test system: HH
- assay explanation: cells;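 note: growth inhibition of HH cells, read out with a cell viability assay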
- Format: functional, cell-based
- particulars: Homo sapiens
- Description: SANGER: Inhibition of human HH cell growth in a cell viability assay.
pIC50: −log10 of the molar value.
quantity kind: pIC50

Solved entries:
smiles code	system tested	pIC50
CS(=O)(=O)CCNCc1ccc(-c2ccc3ncnc(Nc4ccc(OCc5cccc(F)c5)c(Cl)c4)c3c2)o1	HH	< 5.70
CC(=O)O[C@@]12CO[C@@H]1C[C@H](O)[C@@]1(C)C(=O)[C@H](O)C3=C(C)[C@@H](OC(=O)[C@H](O)[C@@H](NC(=O)OC(C)(C)C)c4ccccc4)C[C@@](O)([C@@H](OC(=O)c4ccccc4)[C@H]21)C3(C)C	HH	< 8.00
C=CCNC1=C2C[C@@H](C)C[C@H](OC)[C@H](O)[C@@H](C)/C=C(\C)[C@H](OC(N)=O)[C@@H](OC)/C=C\C=C(/C)C(=O)NC(=CC1=O)C2=O	HH	< 6.00
COc1ccc(C2=N[C@@H](c3ccc(Cl)cc3)[C@@H](c3ccc(Cl)cc3)N2C(=O)N2CCNC(=O)C2)c(OC(C)C)c1	HH	< 5.10
Cn1cc(C2=C(c3ccc(Cl)cc3Cl)C(=O)NC2=O)c2ccccc21	HH	< 5.00

Given the compound "CCOc1nc(NC(=O)Cc2cc(OC)ccc2OC)cc(N)c1C#N" and test system HH, the measured pIC50 is < 5.00
